# credit: BindingDB's records for doi:10.1124/jpet.102.044826

# ASSAYED SYSTEM: Alpha-1A adrenergic receptor (Rattus norvegicus, UniProt P43140)
# Sequence (P43140 whole entry): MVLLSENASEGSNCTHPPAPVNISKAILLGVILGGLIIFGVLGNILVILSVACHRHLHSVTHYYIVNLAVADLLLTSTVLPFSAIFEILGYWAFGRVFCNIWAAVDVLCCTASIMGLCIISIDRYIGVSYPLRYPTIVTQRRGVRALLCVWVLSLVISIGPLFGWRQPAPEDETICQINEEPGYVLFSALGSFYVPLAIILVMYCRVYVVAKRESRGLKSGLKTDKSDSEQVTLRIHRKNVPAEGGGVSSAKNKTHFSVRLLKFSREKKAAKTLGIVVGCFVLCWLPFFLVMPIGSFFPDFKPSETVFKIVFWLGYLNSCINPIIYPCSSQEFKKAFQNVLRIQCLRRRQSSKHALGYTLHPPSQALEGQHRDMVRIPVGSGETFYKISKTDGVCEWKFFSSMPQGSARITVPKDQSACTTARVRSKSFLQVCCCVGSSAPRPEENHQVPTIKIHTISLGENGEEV
MEASURE NAME: IC50 (nM)
Please give a number only; it is taken to be in nM.

Requested read-out: IC50. Entry: COc1ccc2ccccc2c1CCCCN1CCN(C[C@H](c2ccc(F)cc2)N2CCN(C(C)C)CC2)CC1 [MCL0129]
630
